Tested on: CP185
EXPERIMENT: qHTS profiling for inhibitors of Plasmodium falciparum proliferation (AID 504749); also: nearly all actives have a fitted effect of over 60% in size
CONDITION_LABEL: P. falciparum in erythrocytes, SYBR Green DNA, 72 h; series mostly up to 28.7 µM
Results filed as inconclusive are left out. Calls of active or inactive are those of the source. Calls follow the shape of the dose curve; as a rule, active = well fitted inhibition curve with a large enough effect; inconclusive = small, poorly fitted or top-dose-only effect; inactive = flat fitted curve, though single readings scatter.
Please state which outcome applies, choosing from YES = active, NO = inactive

Exercise: # fetch the recorded call for CC(C)NCC(O)c1ccc2ccccc2c1 (configuration not stated) here
Solution: YES

Exercise: Record request — test call for CO[C@]12C[C@@H](COC(=O)c3cncc(Br)c3)CN(C)[C@@H]1Cc1cn(C)c3cccc2c13
Solution: NO

Exercise: Hi, do you know how c1ccc(CC2=NCCN2)cc1 came out in this test?
Solution: NO

Exercise: Identify the outcome logged in this assay for the molecule shown: CC(=O)Nc1ccc(OC(=O)c2ccccc2OC(C)=O)cc1
Solution: NO

Exercise: Status in this test for CC(=O)Nc1ncc([N+](=O)[O-])s1 ?
Solution: NO

Exercise: Tell me the assay call for c1ccc(-c2nc[nH]c2-c2ccccc2)cc1 please.
Solution: NO

Exercise: Dear colleague, could you share the recorded outcome for CCCCC(CC)COC(=O)c1ccc(N(C)C)cc1 (configuration not stated) when you have a moment?
Solution: NO

Exercise: Dear colleague, could you share the recorded outcome for O=C1C(=O)c2ccccc2C(O)=C1C1CCC(c2ccc(Cl)cc2)CC1 (configuration not stated) when you have a moment?
Solution: YES

Exercise: What outcome does the record of this test show for NS(=O)(=O)c1cc(C(=O)O)cc(N2CCCC2)c1Oc1ccccc1 ?
Solution: NO

Exercise: So what was the verdict on NC(=O)c1ccccc1O in this test?
Solution: NO

Exercise: Hello, I am checking results. What call was entered for CCCc1ncc(C[n+]2ccccc2C)c(N)n1 ?
Solution: NO

Exercise: What did this assay record as the result for Cc1cccc(C)c1NC(=O)CN1CCCCCC1 ?
Solution: NO

Exercise: What outcome does the record of this test show for O=C(Nc1ncc([N+](=O)[O-])s1)c1cccs1 ?
Solution: NO

Exercise: Can you look up the reported call for O=C1C(CCS(=O)c2ccccc2)C(=O)N(c2ccccc2)N1c1ccccc1 (configuration not stated) for me?
Solution: NO

Exercise: For this molecule, state the assay outcome: Nc1ccc(S(=O)(=O)Nc2cnc3ccccc3n2)cc1
Solution: NO

Exercise: Just curious, what result did Cc1nc(-c2ccc(Cl)cc2)oc1COC(C)(C)C(=O)O get here?
Solution: NO

Exercise: Answer briefly: the call reported for CC(=O)NC(=O)c1ccccc1O in this assay.
Solution: NO

Exercise: # outcome recorded in this test, key = COc1cc(C(=O)N2CCCCCCC2)cc(OC)c1OC
Solution: NO

Exercise: Which outcome was assigned to COc1cc(N)c(Cl)cc1C(=O)NC1CCN(Cc2ccccc2)CC1 in this test?
Solution: NO

Exercise: How was CCOc1ccc(NC(C)=O)cc1 classified in this test?
Solution: NO

Exercise: Check the results log: what was the call for COc1ccc(C(=O)c2ccccc2)c(O)c1 ?
Solution: NO

Exercise: Kindly provide the recorded test outcome for the following molecule: CCCCCCCCNC(C)C(O)c1ccc(SC(C)C)cc1 (configuration not stated)
Solution: YES

Exercise: Called result for O=C1C(O)=C(O)C(=O)C(O)=C1O
Solution: NO

Exercise: In this assay, the call recorded for Cn1c(=O)c2[nH]c(Br)nc2n(C)c1=O was what?
Solution: NO

Exercise: Hey, what did the test say about NCCNC(=O)c1ccc(Cl)cn1 ?
Solution: NO

Exercise: Which outcome did this test record for the molecule CC(C)Cn1cnc2c1c(=O)n(C)c(=O)n2C ?
Solution: NO

Exercise: I would be grateful if you could indicate the recorded call for Oc1ccccc1C=NCc1ccccc1 .
Solution: NO

* * *

Test system: CP260
EXPERIMENT: qHTS profiling for inhibitors of Plasmodium falciparum proliferation (AID 504749); also: nearly all actives have a fitted effect of over 60% in size
CONDITION_LABEL: P. falciparum in erythrocytes, SYBR Green DNA, 72 h; series mostly up to 28.7 µM
Results filed as inconclusive are left out. Active and inactive are the calls of the source. Calls follow the shape of the dose curve; as a rule, active = well fitted inhibition curve with a large enough effect; inconclusive = small, poorly fitted or top-dose-only effect; inactive = flat fitted curve, though single readings scatter.
// classify into active, inactive

Exercise: What classification did C/C=C/C=N/NC(=O)c1ccncc1 end up with in this test?
Solution: inactive

Exercise: What is the recorded call for this molecule in the test? CCN1/C(=C/C=C/c2sc3ccccc3[n+]2CC)Sc2ccccc21
Solution: active

Exercise: Returns: the outcome recorded for CC(=O)Oc1ccc(C)cc1 in this assay.
Solution: inactive

Exercise: Call for entry O=C(O)P(=O)(O)O :
Solution: inactive

Exercise: Assay result, entry NS(=O)(=O)Cc1noc2ccccc12 — outcome?
Solution: inactive

Exercise: Called result for CCOC(=O)c1ccc(N)cc1
Solution: inactive

Exercise: Hi, do you know how Cc1cc(-c2ccccc2)nnc1NCCN1CCOCC1 came out in this test?
Solution: inactive

Exercise: Could you check what this test reported for COc1cc(NS(=O)(=O)c2ccc(N)cc2)ncn1 ?
Solution: inactive

Exercise: Fill in: this test's call for CCCCN=C(N)N=C(N)N is ___
Solution: inactive

Exercise: What outcome does the record of this test show for O=C(CN1CCN(Cc2ccc3c(c2)OCO3)CC1)N1c2ccccc2Sc2ccccc21 ?
Solution: active

Exercise: Which outcome was assigned to CC(C)Cn1cnc2c1c(=O)n(C)c(=O)n2C in this test?
Solution: inactive

Exercise: Give the logged outcome of this assay for the following molecule: C=C[C@@]1(C)CC(=O)[C@]2(O)[C@@]3(C)[C@@H](O)CCC(C)(C)[C@@H]3[C@H](O)[C@H](OC(C)=O)[C@@]2(C)O1
Solution: inactive

Exercise: So what was the verdict on CCCCCCCCCCCCCCCCO in this test?
Solution: inactive

* * *

EXPERIMENT: qHTS of pediatric cancer cell lines to identify multiple opportunities for drug repurposing: Primary screen for LAN-5 cells (AID 1347100);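 also: plate controls were DMSO neutral control for no effect and bortezomib positive control for full effect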
CONDITION_LABEL: LAN-5 neuroblastoma viability, CellTiter-Glo luminescence, 48 h; series mostly up to 46 µM
Records with an inconclusive call do not appear. The source made the active and inactive calls. Calls come from the whole dose curve; as a rule, active = well fitted cell-killing curve with a large enough effect; inconclusive = small, poorly fitted or top-dose-only effect; inactive = no such curve, though single readings can be large or run the other way.
MEASURED_PROPERTY: outcome

Consider the reported outcome for these molecules:
- MOLECULE: "CC[C@H](c1ccc(O)cc1)[C@@H](CC)c1ccc(O)cc1"
  outcome: "inactive"
- MOLECULE: "O=S(=O)(O)c1ccc(O)cc1"
  outcome: "inactive"
- MOLECULE: "CC(=O)O[C@]1(C(C)=O)CC[C@H]2[C@@H]3C=C(C)C4=CC(=O)CC[C@]4(C)[C@H]3CC[C@@]21C"
  outcome: "inactive"
- MOLECULE: "OC1C(O)C(O)C(O)C(O)C1O (configuration not stated)"
  outcome: "inactive"
- MOLECULE: "Cc1cc(-c2ccccc2)nnc1NCCN1CCOCC1"
  outcome: "inactive"
- MOLECULE: "CC(=O)Nc1ccc(OCC(O)CNC(C)C)cc1 (configuration not stated)"
  outcome: "inactive"

Consider the additional molecule presented here.
Reported outcome for CC(=O)NO was inactive

* * *

EXPERIMENTAL_TARGET: Cytochrome P450 2C9 (Homo sapiens)
EXPERIMENT: Cytochrome P450 family 2 subfamily C member 9 (CYP2C9) small molecule antagonists: luciferase biochemical (cell-free) qHTS assay (AID 1645842); also: nearly all actives have a fitted effect of over 55% in size
CONDITION_LABEL: P450-Glo CYP2C9 enzyme assay, luciferin luminescence; series mostly up to 57.4 µM
Records with an inconclusive call do not appear. Active and inactive are the calls of the source. The call rests on the fitted dose curve; in most records, active means well fitted inhibition curve with a large enough effect in the repeat runs; inconclusive means weak or mixed curves; inactive means no such curve, though single readings can be large or run the other way.
Outcome field: choose from active, inactive

Exercise: Assay outcome for Cc1cc2c(OCC(CNC(C)(C)C)OC(=O)c3ccccc3)cccc2[nH]1 (centres undefined) : what was it?
Solution: active

Exercise: What classification did CC(=O)OCC1=C(C(=O)O)N2C(=O)[C@@H](NC(=O)CSc3ccncc3)[C@H]2SC1 end up with in this test?
Solution: active

Exercise: Dear colleague, could you share the recorded outcome for CC(=O)OC[C@H]1O[C@@H](n2ncc(=O)[nH]c2=O)[C@H](OC(C)=O)[C@@H]1OC(C)=O when you have a moment?
Solution: inactive

Exercise: Recorded test outcome, item CN1CCN(CCC(=O)N2c3ccccc3Sc3ccc(C(F)(F)F)cc32)CC1
Solution: inactive

Exercise: Kindly provide the recorded test outcome for the following molecule: Cc1cc(C)cc(OCC2CNC(=O)O2)c1 (centres undefined)
Solution: inactive

Exercise: I'd appreciate the recorded outcome for Nc1ccc(S(=O)(=O)Nc2cnc3ccccc3n2)cc1 from this test.
Solution: active

Exercise: Query: recorded result category for CCN(CC)CCOc1ccccc1C(=O)CCc1ccccc1 in this test
Solution: inactive

Exercise: // outcome(item) with item = Oc1ccccc1C=NCc1ccccc1
Solution: inactive

Exercise: Which outcome was entered for the molecule CCOCCn1c(N2CCCN(C)CC2)nc2ccccc21 in this test?
Solution: inactive

* * *

System: FAB9
EXPERIMENT: qHTS profiling for inhibitors of Plasmodium falciparum proliferation (AID 504749); also: nearly all actives have a fitted effect of over 60% in size
CONDITION_LABEL: P. falciparum in erythrocytes, SYBR Green DNA, 72 h; series mostly up to 28.7 µM
Inconclusive results are not listed. Active and inactive are the calls of the source. The call rests on the fitted dose curve; in most records, active means well fitted inhibition curve with a large enough effect; inconclusive means small, poorly fitted or top-dose-only effect; inactive means flat fitted curve, though single readings scatter.
Lab note: assign the record to one of 1 for active, 0 for inactive

Exercise: # lookup: test call for CCCCCCCCOc1ccc(C(=O)c2ccccc2)c(O)c1
Solution: 0

Exercise: Test call for this compound, please: CCOc1cc(OCC)c(C(=O)CCC(=O)O)cc1OCC
Solution: 0

Exercise: Please indicate how the test categorized CCNC(=O)NCc1cccc(Cl)c1 .
Solution: 0

Exercise: For Cc1ccc(O)c([C@H](CCN(C(C)C)C(C)C)c2ccccc2)c1 , what call appears in the results of this test?
Solution: 1

Exercise: In this assay, the call recorded for N#CCC(=O)NN was what?
Solution: 0
